# Target: FYN (Homo sapiens, UniProt P06241)
# Construct: purchased Eurofins DiscoverX KINOMEscan (scanTK)
# Sequence (P06241 whole entry): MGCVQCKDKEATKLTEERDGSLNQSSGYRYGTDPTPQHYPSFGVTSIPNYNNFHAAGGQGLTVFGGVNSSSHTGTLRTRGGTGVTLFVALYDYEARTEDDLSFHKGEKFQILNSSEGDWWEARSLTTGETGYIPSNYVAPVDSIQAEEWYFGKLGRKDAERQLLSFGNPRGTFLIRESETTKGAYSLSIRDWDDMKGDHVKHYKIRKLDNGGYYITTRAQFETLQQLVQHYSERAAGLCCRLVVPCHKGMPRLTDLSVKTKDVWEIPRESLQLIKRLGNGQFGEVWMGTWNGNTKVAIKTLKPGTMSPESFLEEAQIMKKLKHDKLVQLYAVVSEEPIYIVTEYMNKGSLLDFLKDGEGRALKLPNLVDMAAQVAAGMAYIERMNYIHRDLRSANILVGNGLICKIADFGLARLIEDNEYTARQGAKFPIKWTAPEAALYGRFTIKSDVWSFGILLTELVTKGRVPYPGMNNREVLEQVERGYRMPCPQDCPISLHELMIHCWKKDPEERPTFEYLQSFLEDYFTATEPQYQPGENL
# Protocol Notes: KINOMEscan ScanTK
# Format: binding
# Measurement Setup: read-out: %Control @1000nM
Measurement Name: remaining binding at 1 µM (%)

Molecule	Target	Measurement Name	Unit Info	Quantitative Readout
CCOC(=O)c1cnc(S(C)(=O)=O)nc1N1CCC[C@@H](n2nc(-c3ccc(Oc4ccccc4)cc3)c3c(N)ncnc32)C1	FYN (Homo sapiens, UniProt P06241)	remaining binding at 1 µM	%	40
CNC(=O)c1cnc(S(C)(=O)=O)nc1N1CCCC(n2nc(-c3ccc(Oc4ccccc4)cc3)c3c(N)ncnc32)C1 (centres unmarked)	FYN (Homo sapiens, UniProt P06241)	remaining binding at 1 µM	%	15
Cc1cnc(S(C)(=O)=O)nc1N1CCCC(n2nc(-c3ccc(Oc4ccccc4)cc3)c3c(N)ncnc32)C1 (centres unmarked)	FYN (Homo sapiens, UniProt P06241)	remaining binding at 1 µM	%	17
COC(=O)c1cnc(S(C)(=O)=O)nc1N1CCCC(n2nc(-c3ccc(Oc4ccccc4)cc3)c3c(N)ncnc32)C1 (centres unmarked)	FYN (Homo sapiens, UniProt P06241)	remaining binding at 1 µM	%	26
C=CC(=O)N1CCC[C@@H](n2nc(-c3ccc(Oc4ccccc4)cc3)c3c(N)ncnc32)C1 [Compound 1g, Ibrutinib, reference compound]	FYN (Homo sapiens, UniProt P06241)	remaining binding at 1 µM	%	9.6

----------
# Target: EPHB4 (Homo sapiens, UniProt P54760)
# Construct: purchased Eurofins DiscoverX KINOMEscan (scanTK)
# Protocol Notes: KINOMEscan ScanTK
# Assay type: binding
# Measurement Setup: @1000nM
Measurement Name: difference in %Control from compound Ib at 1 µM (%)

Compound	Quantitative Readout
COC(=O)c1cnc(S(C)(=O)=O)nc1N1CCCC(n2nc(-c3ccc(Oc4ccccc4)cc3)c3c(N)ncnc32)C1 (stereo not shown)	-2
Cc1cnc(S(C)(=O)=O)nc1N1CCCC(n2nc(-c3ccc(Oc4ccccc4)cc3)c3c(N)ncnc32)C1 (stereo not shown)	0
CCOC(=O)c1cnc(S(C)(=O)=O)nc1N1CCC[C@@H](n2nc(-c3ccc(Oc4ccccc4)cc3)c3c(N)ncnc32)C1	-14
CNC(=O)c1cnc(S(C)(=O)=O)nc1N1CCCC(n2nc(-c3ccc(Oc4ccccc4)cc3)c3c(N)ncnc32)C1 (stereo not shown)	0

----------
# Target: EPHB4 (Homo sapiens, UniProt P54760)
# Construct: purchased Eurofins DiscoverX KINOMEscan (scanTK)
# Sequence (P54760 16-987): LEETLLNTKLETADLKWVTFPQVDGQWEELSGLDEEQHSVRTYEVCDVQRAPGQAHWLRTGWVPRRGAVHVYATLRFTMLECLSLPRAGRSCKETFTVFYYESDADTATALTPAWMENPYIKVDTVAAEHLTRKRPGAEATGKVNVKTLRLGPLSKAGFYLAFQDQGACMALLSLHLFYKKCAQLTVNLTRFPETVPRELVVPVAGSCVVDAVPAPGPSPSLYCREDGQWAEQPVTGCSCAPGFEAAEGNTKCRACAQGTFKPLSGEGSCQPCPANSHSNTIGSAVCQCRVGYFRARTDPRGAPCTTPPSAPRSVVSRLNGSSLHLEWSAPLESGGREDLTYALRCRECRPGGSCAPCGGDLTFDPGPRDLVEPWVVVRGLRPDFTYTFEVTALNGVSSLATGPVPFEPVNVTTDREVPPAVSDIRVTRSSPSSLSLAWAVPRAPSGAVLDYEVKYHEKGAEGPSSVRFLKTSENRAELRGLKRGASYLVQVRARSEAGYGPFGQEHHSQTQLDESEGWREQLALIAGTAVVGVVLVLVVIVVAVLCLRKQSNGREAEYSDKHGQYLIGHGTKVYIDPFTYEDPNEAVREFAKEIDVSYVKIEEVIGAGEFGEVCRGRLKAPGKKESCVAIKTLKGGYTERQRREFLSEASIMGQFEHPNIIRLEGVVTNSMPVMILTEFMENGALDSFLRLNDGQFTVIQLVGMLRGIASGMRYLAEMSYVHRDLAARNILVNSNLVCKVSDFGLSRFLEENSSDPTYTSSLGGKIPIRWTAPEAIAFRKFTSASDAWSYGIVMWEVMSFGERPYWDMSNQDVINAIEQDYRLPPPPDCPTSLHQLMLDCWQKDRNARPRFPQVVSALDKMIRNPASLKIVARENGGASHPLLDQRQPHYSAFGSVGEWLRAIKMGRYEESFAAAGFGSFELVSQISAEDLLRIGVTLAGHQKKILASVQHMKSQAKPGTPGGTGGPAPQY
# Protocol Notes: KINOMEscan ScanTK
# Format: binding
# Measurement Setup: read-out: %Control @1000nM

Compound	remaining binding at 1 µM / %
COC(=O)c1cnc(S(C)(=O)=O)nc1N1CCCC(n2nc(-c3ccc(Oc4ccccc4)cc3)c3c(N)ncnc32)C1 (centres unmarked)	98
Cc1cnc(S(C)(=O)=O)nc1N1CCCC(n2nc(-c3ccc(Oc4ccccc4)cc3)c3c(N)ncnc32)C1 (centres unmarked)	100
C=CC(=O)N1CCC[C@@H](n2nc(-c3ccc(Oc4ccccc4)cc3)c3c(N)ncnc32)C1 [Compound 1g, Ibrutinib, reference compound]	100
CNC(=O)c1cnc(S(C)(=O)=O)nc1N1CCCC(n2nc(-c3ccc(Oc4ccccc4)cc3)c3c(N)ncnc32)C1 (centres unmarked)	100
CCOC(=O)c1cnc(S(C)(=O)=O)nc1N1CCC[C@@H](n2nc(-c3ccc(Oc4ccccc4)cc3)c3c(N)ncnc32)C1	86
